Each recorded value in this set is attributed to paper PMC8151276.

Biological target: GRM3 (Homo sapiens)
Construct: purchased Promega (in-house HiBiT-GPCR construct library, NanoBRET)
Sequence (Q14832 23-879): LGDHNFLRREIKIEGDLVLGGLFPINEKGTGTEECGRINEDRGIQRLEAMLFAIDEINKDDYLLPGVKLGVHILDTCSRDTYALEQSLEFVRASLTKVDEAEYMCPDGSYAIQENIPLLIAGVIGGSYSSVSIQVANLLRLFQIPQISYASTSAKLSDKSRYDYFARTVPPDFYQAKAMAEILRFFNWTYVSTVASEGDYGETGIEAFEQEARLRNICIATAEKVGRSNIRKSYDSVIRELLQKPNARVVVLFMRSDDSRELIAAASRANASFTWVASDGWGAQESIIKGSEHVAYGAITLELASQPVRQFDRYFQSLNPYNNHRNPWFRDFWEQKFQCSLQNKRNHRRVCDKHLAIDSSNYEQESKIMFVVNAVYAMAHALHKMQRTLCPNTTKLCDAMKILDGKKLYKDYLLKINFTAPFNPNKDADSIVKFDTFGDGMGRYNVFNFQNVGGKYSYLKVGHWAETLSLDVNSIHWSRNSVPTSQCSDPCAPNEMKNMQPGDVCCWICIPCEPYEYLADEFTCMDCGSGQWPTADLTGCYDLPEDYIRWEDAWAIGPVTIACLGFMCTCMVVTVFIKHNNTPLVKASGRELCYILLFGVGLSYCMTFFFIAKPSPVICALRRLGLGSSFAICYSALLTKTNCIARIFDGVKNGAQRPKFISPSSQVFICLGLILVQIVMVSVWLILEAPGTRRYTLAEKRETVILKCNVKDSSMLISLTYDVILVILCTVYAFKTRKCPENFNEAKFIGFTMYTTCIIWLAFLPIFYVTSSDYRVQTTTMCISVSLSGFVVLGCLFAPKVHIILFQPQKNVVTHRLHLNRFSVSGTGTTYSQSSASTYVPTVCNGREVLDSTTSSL
Assay: NanoBRET screen HiBiT-GRM3 in HEK293
Type: binding
Conditions: GRM3; tracer 1μM
Procedure: Each tracer candidate was screened across the entire library of HiBiT-GPCR constructs using NanoBRET as the detection modality. As depicted in Figure 4A, the specificity of interactions was evaluated through decrease in BRET due to competitive displacement of a bound tracer by excess parental compound. Each tracer was analyzed for binding to each HiBiT-GPCR fusion in the absence and in the presence of competing parental compound. […]
NanoBRET Fold Response: recorded values
parameter: NanoBRET Fold Response

>>> numeric_result("O=C(CCc1ccc2n1[B-](F)(F)[N+]1=C(c3ccc[nH]3)C=CC1=C2)NCc1ccc(C(=O)NCCOCCC(=O)N[C@@H]2CC[C@@]3(O)[C@H]4Cc5ccc(O)c6c5[C@@]3(CCN4CC3CC3)[C@H]2O6)cc1 [Naltrexone-3-NB590]")
0.81
>>> numeric_result("COc1ccccc1N1CCN(CCCCN2C(=O)c3ccc(CNC(=O)CCOCCNC(=O)c4ccc(CNC(=O)CCc5ccc6n5[B-](F)(F)[N+]5=C(c7ccc[nH]7)C=CC5=C6)cc4)cc3C2=O)CC1")
1.25
>>> numeric_result("O=C(CCc1ccc2n1[B-](F)(F)[N+]1=C(c3ccc[nH]3)C=CC1=C2)NCCOCCOCCNC(=O)OCCOCCN1CCN(C2=Nc3ccccc3Sc3ccccc32)CC1")
1.09
>>> numeric_result("Cc1nc2n(c(=O)c1CCN1CCC(c3noc4cc(F)ccc34)CC1)CCCC2OC(=O)NCCOCCOCCOCCOCCNC(=O)CCc1ccc2n1[B-](F)(F)[N+]1=C(c3ccc[nH]3)C=CC1=C2 (centres unmarked)")
1.07
>>> numeric_result("CC(C)N(CC[C@H](c1ccccc1)c1cc(CCNC(=O)c2ccc(CNC(=O)CCc3ccc4n3[B-](F)(F)[N+]3=C(c5ccc[nH]5)C=CC3=C4)cc2)ccc1O)C(C)C")
1.06
